Data credit: PubChem BioAssay AID1996

applied conditions: buffer; pH 7.4; 200.0 µM
Non-standard residues stand in square brackets, D forms with d. Residues, ends and D or L forms follow the SMILES beside them. ξ: configuration not given here. *: point of attachment. Cbz = O=C(OCc1ccccc1)*; ξV = CC(C)C(N)C(=O)O
measure: solubility kinetic

| molecule | solubility kinetic |
| --- | --- |
| CCN(Cc1ccncc1)C(=S)Nc1ccc(Cl)cc1 | > 45.9 µg/mL |
| COC(=O)CNC(=O)C(NC(=O)OCc1ccccc1)C(C)C (stereo unspecified) (Cbz-[ξV]-Gly-OMe) | > 48.4 µg/mL |
| CN(C)c1nc(N)ncc1-c1ccc(Oc2ccccc2)cc1 | < 0.2 µg/mL |
| CC(=O)N[C@@H](Cc1ccc(OC(F)(F)F)cc1)C(=O)O | > 43.7 µg/mL |
| Cc1nc(C(=O)N2CCCC(Nc3ccc(C)c(C)c3)C2)cs1 (stereo unspecified) | > 49.4 µg/mL |

Next item in the queue.
Measured solubility kinetic of COc1cccc(/C=N/N2CCN(Cc3ccccc3)CC2)c1O : > 48.8 µg/mL
